System: Severe acute respiratory syndrome coronavirus 2
test: Inhibition of SARS CoV-2 main protease at 50 uM by rapidfire high-throughput mass spectrometry relative to control
endpoint: inhibition

In [3]: df
Out[3]:
                            chemical_string    endpoint  observed_value
0  O=C(Nc1ccccc1)Nc1cnc2ccc([N+](=O)[O-])cc2n1  inhibition           0.77%

Kindly review the next compound as well.
Req: Reported inhibition for `CCCc1cc2c(cc1S(=O)(=O)N1CCN(c3ccccc3)CC1)OCO2` : what is it?
Resp: 68.3%

---

test: Inhibition of SARS CoV-2 main protease
Set-up: species or system Severe acute respiratory syndrome coronavirus 2
endpoint: IC50

Req: Report IC50 for `COc1ccc(/N=C2/C(=O)N(Cc3ccc4ccccc4c3)c3ccc(C(N)=O)cc32)cc1` please.
Resp: 17 µM

The measurements presented in this section are drawn from ChEMBL document CHEMBL4680067.
